For each of the compounds below, state its composite z-score.
biological target: Focal adhesion kinase 1 (Homo sapiens) (UniProt Q05397); experiment: PTK2 protein binding on printed compound slides – biochemical, small-molecule microarray, 635/667 nm fluorescence, BSA, DTT, primary screen (AID 1130); details: 635 nm fluorescence, higher = more signal;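 further: composite of spot emission at 667 nm and signal to noise over triplicate slides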
Sequence (Q05397 whole entry, looked up): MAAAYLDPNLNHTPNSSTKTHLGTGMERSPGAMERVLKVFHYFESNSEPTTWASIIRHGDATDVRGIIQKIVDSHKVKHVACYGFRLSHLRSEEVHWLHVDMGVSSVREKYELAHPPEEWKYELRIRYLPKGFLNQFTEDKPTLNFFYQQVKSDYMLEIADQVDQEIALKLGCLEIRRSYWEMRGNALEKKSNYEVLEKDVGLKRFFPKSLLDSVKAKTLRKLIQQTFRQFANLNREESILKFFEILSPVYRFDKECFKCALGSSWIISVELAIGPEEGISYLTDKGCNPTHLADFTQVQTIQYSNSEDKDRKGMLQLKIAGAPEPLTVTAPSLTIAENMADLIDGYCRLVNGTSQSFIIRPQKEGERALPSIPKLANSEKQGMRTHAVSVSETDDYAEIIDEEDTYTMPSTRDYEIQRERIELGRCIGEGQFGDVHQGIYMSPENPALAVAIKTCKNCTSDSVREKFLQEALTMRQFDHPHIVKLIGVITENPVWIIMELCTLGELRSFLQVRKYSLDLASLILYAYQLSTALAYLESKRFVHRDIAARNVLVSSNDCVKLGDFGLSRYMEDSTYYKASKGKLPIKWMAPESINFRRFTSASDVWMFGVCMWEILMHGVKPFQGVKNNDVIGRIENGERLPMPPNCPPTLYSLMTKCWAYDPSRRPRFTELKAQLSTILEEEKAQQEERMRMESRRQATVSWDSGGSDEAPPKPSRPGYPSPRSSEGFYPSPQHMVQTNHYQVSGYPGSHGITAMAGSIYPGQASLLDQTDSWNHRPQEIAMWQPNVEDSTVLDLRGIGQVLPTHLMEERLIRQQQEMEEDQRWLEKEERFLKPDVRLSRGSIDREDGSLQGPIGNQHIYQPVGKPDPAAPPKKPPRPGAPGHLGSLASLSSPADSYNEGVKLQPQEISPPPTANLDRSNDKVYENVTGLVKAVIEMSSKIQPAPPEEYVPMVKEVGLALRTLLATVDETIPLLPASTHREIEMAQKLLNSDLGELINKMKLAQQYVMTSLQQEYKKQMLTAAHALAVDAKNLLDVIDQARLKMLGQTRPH
API doc: respond with a numeric literal and nothing else, no unit.

Dear colleague, I am looking for the recorded composite z-score of the following compound: "COCCn1c(C(=O)N2CCCC2)cc2c1C[C@H]1CN(C(=O)c3ccccc3)[C@@](Cc3ccc(OC)cc3)(C(=O)OC)[C@@H]21"
1.89

Dear colleague, I am looking for the recorded composite z-score of the following compound: "[N-]=[N+]=NCc1ccccc1C[C@]1(C(=O)N2CCOCC2)N=C(c2ccc(OCCCO)cc2)O[C@H]1c1ccccc1"
-0.0665

Dear colleague, I am looking for the recorded composite z-score of the following compound: "COC(=O)[C@@]1(Cc2ccc(OC)cc2)[C@H]2c3cc(C(=O)N4CCCC4)n(C[C@H](O)CO)c3C[C@H]2CN1C(=O)c1ccccc1"
0.493

Dear colleague, I am looking for the recorded composite z-score of the following compound: "C[N+](C)(C)CCCC[C@@H]1NC(=O)[C@H]2C[C@@H](C(=O)O)[C@@H](c3cccc(OCCO)c3)N2C1=O"
2.21

Dear colleague, I am looking for the recorded composite z-score of the following compound: "C=C(COC)/C(=C/C[C@H](OC(C)=O)c1ccccc1OCCO)c1cnc2ccccc2c1"
0.528

Dear colleague, I am looking for the recorded composite z-score of the following compound: "COc1ccc([Si](C)(C)[C@@H]2[C@@H](CC(=O)N3Cc4ccccc4C[C@H]3CO)O[C@]3(C(=O)N(Cc4cccc(N5C(=O)COc6ccccc65)c4)c4ccccc43)[C@H]2C)cc1"
0.261

Dear colleague, I am looking for the recorded composite z-score of the following compound: "CC(C)N1C(=O)c2ccccc2[C@](C)(C(=O)NCCCN(C)C)[C@@H]1c1ccc(CO)cc1"
2.34

Dear colleague, I am looking for the recorded composite z-score of the following compound: "COc1ccc([Si](C)(C)[C@H]2[C@H](CCO)O[C@@]3(C(=O)N(Cc4ccccc4)c4ccc(N5C(=O)COc6ccccc65)cc43)[C@@H]2C)cc1"
-0.0125

Dear colleague, I am looking for the recorded composite z-score of the following compound: "C/C=C/[C@H](CCn1cc([C@H](O)c2ccccc2)nn1)[Si](C)(C)c1ccc(OC)cc1"
-0.3

Dear colleague, I am looking for the recorded composite z-score of the following compound: "CN(C)CCCC[C@@H]1NC(=O)[C@H]2C[C@@H](C(=O)NCCCCCNC(=O)CS)[C@@H](c3ccc(O)cc3)N2C1=O"
-0.0308

Dear colleague, I am looking for the recorded composite z-score of the following compound: "O=C1O[C@@H](c2ccccc2)[C@@H](c2ccccc2)N2[C@@H](c3ccc(O)cc3)[C@]3(C(=O)Nc4ccc(C#CCCO)cc43)[C@@H](C(=O)N3CCCCCCC3)[C@H]12"
0.724

Dear colleague, I am looking for the recorded composite z-score of the following compound: "[N-]=[N+]=Nc1ccccc1C[C@]1(C(=O)N2CCCCC2)N=C(c2ccc(OCCCO)cc2)O[C@H]1c1ccccc1N=[N+]=[N-]"
0.544

Dear colleague, I am looking for the recorded composite z-score of the following compound: "COc1ccc(C#Cc2ccc3c(c2)[C@]2(C(=O)N3)[C@H](c3ccc(OCCO)cc3)N3[C@H](c4ccccc4)[C@H](c4ccccc4)OC(=O)[C@H]3[C@@H]2C(=O)Nc2nc3ccccc3s2)cc1"
0.862

Dear colleague, I am looking for the recorded composite z-score of the following compound: CC1CC/C=C\[C@H]2OC34C=CCN(c5ccc6ccccc6c5)C(=O)[C@H]3N(CCCCCO)C(=O)[C@@H]4C2C(=O)O1 (some centres undefined)
-0.673

The origin of these recorded values is PubChem BioAssay.
